tested on: Vaccinia virus; test: Antiviral activity against Vaccinia virus infected in human HEL cells assessed as inhibition of virus-induced cytopathicity at 100 uM; format: functional, organism-based; settings: Orthopoxvirus vaccinia
Active and inactive are the calls of the source. The calls are words filed in the database; no cut-off is given here.

{"columns": ["test_smiles", "inhibition"],
 "data": [
  ["N#C[C@]1(O)[C@H](O)[C@@H](CO)O[C@@H](n2cc(F)c(O)nc2=O)[C@@H]1O", "inactive"],
  ["N#C[C@H]1[C@@H](O)[C@H](n2ccc(N)nc2=O)O[C@H](CO)[C@H]1O", "inactive"],
  ["Cc1cn([C@@H]2O[C@H](CO)[C@@H](O)[C@@](O)(C#N)[C@H]2O)c(=O)nc1O", "inactive"]
]}
